Measured IC50, listed per entry for reference.
- System: E. coli BW25113 ΔtolC growth inhibition, OD615
- method.notes: growth inhibitors of E. coli tolC mutant, dose response, strain BW25113 ΔtolC::kan (AID 617);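 further: growth read after 20 h at 37 °C with compound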

These solved cases illustrate the format of a correct answer.
| molecule | IC50 |
| --- | --- |
| Cc1c(C(=O)N2CCc3ccccc3C2)sc2nc(-c3ccccc3)cn12 | 13.6 µM |
| CCOc1ccc(NS(=O)(=O)c2ccc(SC)cc2)cc1 | 6.84 µM |

Given the entry CS(=O)c1nc(-c2ccc(Br)cc2)cc(-c2ccccc2)c1C#N (stereo unspecified) , report its measured IC50.
10.4 µM

Returns the measured IC50 for the input molecule. Input: `Cc1ccc(O)c(-c2cc3ccccc3[nH]2)c1`
11.7 µM

Looking for the measured IC50 of Brc1cccc(C2CC(c3ccccc3)n3nnnc3N2)c1 (stereo unspecified) , can you help?
23.7 µM

====

This section presents compounds with their documented IC50 values.
- Test system: E. coli BW25113 ΔtolC growth inhibition, OD615
- method.notes: growth inhibitors of E. coli tolC mutant, dose response, strain BW25113 ΔtolC::kan (AID 617);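 further: growth read after 20 h at 37 °C with compound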

These recorded examples may help you get a feel for the data.
| compound.string | experimental.system | IC50 |
| --- | --- | --- |
| O=C(c1ccccc1CCc1ccccc1)N1CCN(c2ccccn2)CC1 | E. coli BW25113 ΔtolC growth inhibition, OD615 | 8.38 µM |
| CCn1c(=N)n(CC(=O)C23CC4CC(CC(C4)C2)C3)c2ccccc21 | E. coli BW25113 ΔtolC growth inhibition, OD615 | 13 µM |
| Cc1ccc(Cl)cc1N1CCN(C(=O)CCS(=O)(=O)c2cccc3nonc23)CC1 | E. coli BW25113 ΔtolC growth inhibition, OD615 | 44 µM |

Item `Nc1nncn1C(=O)CCCN1C(=O)c2ccccc2C1=O` has what recorded IC50?
12.7 µM

Could you tell me which IC50 is on file for `CCCCCn1c(-c2ccco2)nc2nc3ccccc3nc21` ?
84.8 µM

====

- System: E. coli BW25113 ΔtolC growth inhibition, OD615
- method.notes: growth inhibitors of E. coli tolC mutant, dose response, strain BW25113 ΔtolC::kan (AID 617);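 further: growth read after 20 h at 37 °C with compound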
observed.property: IC50

| compound | experimental.system | IC50 |
| --- | --- | --- |
| N#Cc1nc(Cc2ccccc2)oc1NCCc1ccccc1 | E. coli BW25113 ΔtolC growth inhibition, OD615 | 8.5 µM |
| N=c1c2c(n(Cc3ccc(Cl)cc3Cl)c3c1CCC3)CCCC2 | E. coli BW25113 ΔtolC growth inhibition, OD615 | 6.15 µM |
| CCC(=NCc1ccc2c(c1)OCO2)c1c(O)n(C2CCCCC2)c(=O)[nH]c1=O | E. coli BW25113 ΔtolC growth inhibition, OD615 | 12 µM |
| CCOC(=O)c1c(-c2ccccc2)nnn1-c1nc(OCC)nc(N2CCCCC2)n1 | E. coli BW25113 ΔtolC growth inhibition, OD615 | 20.7 µM |
| Cn1cccc1C(=O)Nc1nc(-c2ccccn2)cs1 | E. coli BW25113 ΔtolC growth inhibition, OD615 | 2.42 µM |

Notebook: pull reported IC50 for E. coli BW25113 ΔtolC growth inhibition, OD615, entry `O=C(Nc1nc(-c2ccccc2)ns1)c1cccs1`
28.4 µM

Missing value: IC50, E. coli BW25113 ΔtolC growth inhibition, OD615, entry `CCN(c1ccccc1)S(=O)(=O)c1ccc(C(=O)Nc2nnc(COC)o2)cc1` . Fill in?
3.23 µM

Request - read-out IC50 | tested on E. coli BW25113 ΔtolC growth inhibition, OD615 | compound Cc1ccc(-n2c(C)cc(C3N=C(N)Nc4nc5ccccc5n43)c2C)c(C)c1 (stereo unspecified)
6.62 µM

What measured IC50 is associated with `COc1ccc(Cl)cc1N(C)C(=O)CCc1nc(-c2ccc(C)cc2)no1` on E. coli BW25113 ΔtolC growth inhibition, OD615?
15.2 µM

Param readout= IC50; system= E. coli BW25113 ΔtolC growth inhibition, OD615; entry= `c1ccc(-n2nnnc2Oc2cccc3cccnc23)cc1` ; returns value.
7.65 µM

Identify the measured IC50 of `CCCCC(=O)c1c(O)c2ccccc2oc1=O` for E. coli BW25113 ΔtolC growth inhibition, OD615.
7.48 µM

====

- Test system: E. coli BW25113 ΔtolC growth inhibition, OD615
- method.notes: growth inhibitors of E. coli tolC mutant, dose response, strain BW25113 ΔtolC::kan (AID 617);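 further: growth read after 20 h at 37 °C with compound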
observed.property: IC50

Reference set (5 entries):
| compound | observed.property | value.reported |
| --- | --- | --- |
| Cc1cc(N2CCCCC2)nc(SCc2ccc(C#N)cc2)n1 | IC50 | 12.1 µM |
| COC(=O)c1ccc(C2c3c(n[nH]c3C)C(=O)N2c2ccc(C)cc2)cc1 (stereo unspecified) | IC50 | 4.38 µM |
| CCn1cc(C(=O)O)c(=O)c2cc(F)c(N3CCN(C(=O)Nc4ccccc4)CC3)cc21 | IC50 | < 0.2 µM |
| Fc1ccc(-c2cc(C(F)(F)F)nc(NCC3CCCO3)n2)cc1 (stereo unspecified) | IC50 | 20.7 µM |
| Brc1ccc(CSc2nnc(-c3ccccn3)n2Cc2ccco2)cc1 | IC50 | 9.85 µM |

Now take the following compound into account.
Please give the measured IC50 for this compound: `Cc1ccc2cc(CN(Cc3ccccc3)Cc3nnnn3C3CCCC3)c(=O)[nH]c2c1`
11.6 µM

====

- Tested on: E. coli BW25113 ΔtolC growth inhibition, OD615
- method.notes: growth inhibitors of E. coli tolC mutant, dose response, strain BW25113 ΔtolC::kan (AID 617);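 further: growth read after 20 h at 37 °C with compound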
observed.property: pIC50
Reminder that pIC50 is minus the log10 of a molar concentration.

Consider the worked cases shown below.
| molecule | pIC50 |
| --- | --- |
| COC(=O)c1c(C)oc2ccc(OC(=O)c3cccs3)cc12 | 5.02 |
| CCc1cc(C(=O)COc2ccccc2F)c(O)cc1O | 4.97 |
| COCCn1nnnc1C(C(C)C)N(Cc1ccccc1)Cc1cc2cc(OC)ccc2[nH]c1=O (stereo unspecified) | 4.96 |
| CS(=O)(=O)N1CCc2cc(-c3csc(NC(=O)Cc4cccs4)n3)ccc21 | 4.66 |
| O=C(CCCSc1nc(-c2ccco2)cc(C(F)(F)F)n1)Nc1ccc2c(c1)OCO2 | 5.34 |
| CCNc1nc(NC(C)C)nc(N(C#N)Cc2ccccc2)n1 | 4.74 |
| O=C(NCCCc1ccccc1)c1ccccc1O | 5.03 |
| Cc1onc(-c2ccccc2)c1C(=O)OCC(=O)c1ccccc1 | 4.62 |
| Brc1cc(Br)c2ncnc(N3CCCCC3)c2c1 | 4.46 |
| CCc1ccc2oc(=O)cc(CN(C)Cc3ccccc3)c2c1 | 4.89 |

Reported pIC50 for `COc1ccc(C(=O)Nc2nc(-c3cccs3)cs2)cc1` : what is it?
5.09

====

- Tested on: E. coli BW25113 ΔtolC growth inhibition, OD615
- method.notes: growth inhibitors of E. coli tolC mutant, dose response, strain BW25113 ΔtolC::kan (AID 617);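 further: growth read after 20 h at 37 °C with compound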
observed.property: IC50

Illustrative cases are given below, each with its answer.
| compound | IC50 |
| --- | --- |
| CCOc1ccc(C(=O)N2CCN(c3cccc(C)c3C)CC2)cc1 | 11 µM |
| CCOC(=O)c1c(C)[nH]c(C)c1C(=O)Cn1nnc(-c2ccccc2C)n1 | 5.44 µM |
| O=C(Nc1ccc(S(=O)(=O)N2CCCc3ccccc32)cc1)C1CCCO1 (stereo not given) | 19.6 µM |

Look up IC50 for this compound: CC1(C)CC2CC(C)(CN2C(=O)c2cc(-c3ccccc3O)on2)C1 (stereo not given)
3.42 µM

Query (compound): CSCSC1=C(C#N)C(c2ccc(Cl)cc2)C(C(C)=O)=C(C)N1 (stereo not given) ; field requested: IC50
9.12 µM

Consider the compound `Cc1cc(-c2ccco2)c(C#N)c2nc3ccccc3n12` and give its measured IC50.
9.09 µM

So what's the measured IC50 for this one? CCOC(=O)C1CN(c2cc3c(cc2F)c(=O)c(C(=O)O)cn3CC)OC1C(=O)OCC (stereo not given)
0.81 µM

Item under review: `CCCc1cc(C(=O)N2CCN(c3ccccc3C)CC2)cs1` . Reported IC50?
8.52 µM

====

- System: E. coli BW25113 ΔtolC growth inhibition, OD615
- method.notes: growth inhibitors of E. coli tolC mutant, dose response, strain BW25113 ΔtolC::kan (AID 617);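 further: growth read after 20 h at 37 °C with compound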
observed.property: IC50

Observe how each entry below is paired with its result.
| molecule | observed.property | value.reported |
| --- | --- | --- |
| O=C(Nc1ccc(Cl)c(C(F)(F)F)c1)c1ccco1 | IC50 | 7.46 µM |
| N#C/C(=C\c1ccco1)Sc1nc2ccccc2s1 | IC50 | 8.6 µM |
| O=C(Nc1nnc(C2CC2)s1)c1cc(-c2ccccc2)nn1-c1ccccc1 | IC50 | 6.41 µM |
| Cc1ccc(N(CC(=O)Nc2cccc(C)c2)S(=O)(=O)c2cccc3nonc23)cc1 | IC50 | 37 µM |
| N#Cc1nc(-c2ccc(OCc3ccccc3)cc2)oc1NCCCn1ccnc1 | IC50 | 6.08 µM |
| CCOc1ccc2nc(NC(=O)C(CC)Sc3nc(C)cc(=O)[nH]3)sc2c1 (stereo not given) | IC50 | 12.1 µM |
| Cc1cccc2cc(C(c3nnnn3CC3CCCO3)N3CCc4ccccc4C3)c(=O)[nH]c12 (stereo not given) | IC50 | 35.4 µM |
| COc1c(N2CCNC(C)C2)c(F)cc2c(=O)c(C(=O)O)cn(C3CC3)c12 (stereo not given) | IC50 | < 0.2 µM |

GET /values?readout=IC50&item= `O=C(Cn1c(C(=O)NCc2ccco2)cc2sccc21)c1ccccc1`
24.6 µM

Fill blank: measured IC50 of the molecule `O=C(CN1CCN(c2nc(-c3ccc(F)cc3)cs2)CC1)NCc1ccc2c(c1)OCO2` is ____.
11.1 µM
